Molecular target: PICK1, Q9NRD5
Sequence (Q9NRD5 17-115): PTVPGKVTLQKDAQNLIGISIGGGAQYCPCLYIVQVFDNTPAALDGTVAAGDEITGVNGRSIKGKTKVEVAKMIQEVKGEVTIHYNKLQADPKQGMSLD
Experiment: holdup assay
Set-up: key: below the threshold = too weak to quantify, mostly under pKd 3.1 to 4
Conditions: plain residues with an end cap or a label only (N-terminal biotin on a linker: ado-ado)
Measurement name: pKd

{"Binder": "LKVPPEERLI [CRB2, Q5IJ48]", "Result": "below the threshold"}
{"Binder": "SKENVQETQI [LRRC4B, Q9NT99]", "Result": "below the threshold"}
{"Binder": "CLREWCDAFL [BANF1, O75531]", "Result": "below the threshold"}
